Numbers sourced from paper PMC4964386.

- system.name: TSPO (Rattus norvegicus, UniProt P16257)
- Construct: Membranes from C6 rat glioma cells were prepared as described by Piccinonna et al; endogenous in cells; host or cells: C6 rat glioma cell membranes
- Sequence (P16257 whole entry): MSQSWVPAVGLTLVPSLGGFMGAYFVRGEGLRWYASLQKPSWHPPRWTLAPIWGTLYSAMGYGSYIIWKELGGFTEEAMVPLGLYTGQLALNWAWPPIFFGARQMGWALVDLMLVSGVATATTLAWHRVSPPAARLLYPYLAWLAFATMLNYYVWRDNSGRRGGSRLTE
- test.description: TSPO receptor binding assay, displacement of [3H]-PK 11195
- test.parameters: displacement of [3H]-PK 11195 (0.7 nM); Table 2: rat cerebral cortex, method: C6 rat glioma cell membranes; 90 min, 25 °C; read-out: IC50 TSPO
readout.label: pIC50
Scale: pIC50 equals -log10([C]), with [C] in mol/L.

Qu. // returns reported pIC50 for input CCCN(CCC)C(=O)Cc1c(-c2ccc(OCC(=O)OCC[O][Pt]3([Cl])[O]C(=O)C(=O)[O]3)cc2)nc2c(Cl)cc(Cl)cn12.N[C@@H]1CCCC[C@H]1N
Ans. 7.73
